Tested on: Staphylococcus aureus
test: Antimicrobial activity against Staphylococcus aureus LysRs assessed as bacterial growth inhibition by microdilution method
Type: functional, organism-based
parameter_measured: pIC50
Reminder that pIC50 means the negative base-10 logarithm of the concentration expressed in mol/L.

Ask: What pIC50 appears in the records for this compound with Staphylococcus aureus? CCc1c2[nH]c(=O)[nH]c(=O)c2nn1CC1CCC1
Reply: 4.66

====

System: Staphylococcus aureus
test: Antimicrobial activity against Methicillin-resistant Staphylococcus aureus assessed as bacterial growth inhibition
Assay type: functional
Values of MIC strictly less than 2 µg/mL map to Satisfied, and values of at least 2 µg/mL map to Not satisfied.

- compound_smiles: "Cn1ncc2c3c(C#N)c4ccccc4nc3ccc21"
  assigned_category: "Not satisfied"
- compound_smiles: "CC1(C)S[C@@H]2[C@H](NC(=O)Cc3ccccc3)C(=O)N2[C@H]1C(=O)O"
  assigned_category: "Satisfied"
- compound_smiles: "CCCn1ncc2c3c(C#N)c4ccc(Br)cc4nc3ccc21"
  assigned_category: "Satisfied"
- compound_smiles: "CC1(C)S[C@@H]2[C@H](NC(=O)[C@H](N)c3ccccc3)C(=O)N2[C@H]1C(=O)O"
  assigned_category: "Not satisfied"
- compound_smiles: "CCCn1ncc2c3c(C#N)c4ccccc4nc3ccc21"
  assigned_category: "Not satisfied"

Ask: Strictly below 2 µg/mL: is that where MIC of CCn1ncc2c3c(C#N)c4ccccc4nc3ccc21 sits?
Reply: Not satisfied

Ask: Strictly below 2 µg/mL: is that where MIC of CC(C)Cn1ncc2c3c(C#N)c4ccc(Br)cc4nc3ccc21 sits?
Reply: Not satisfied

Ask: Strictly below 2 µg/mL: is that where MIC of Cc1cc(NS(=O)(=O)c2ccc(N)cc2)no1 sits?
Reply: Not satisfied
